Data origin: patent US11708344B2

Listed below: Clearance of Human microsome values for each entry.
assay overview: Human microsome stability assay
Format: in vitro ADME
condition parameters: human liver microsomes, 1 μM test compound, 0.5 mg/mL microsomal protein, 37° C., pH 7.4, 0-30 minutes
value kind: Clearance of Human microsome (mL/min/kg)

1) Cc1ccc(-c2cc(=O)c3c(O)ccc(Cl)c3o2)c(O[C@H]2C[C@@H](C(=O)O)C2)c1 [Example B037-A] = 9.86
2) Cc1cc(-c2cc(=O)c3cccc(Cl)c3o2)c(OCCCC(=O)O)cc1Cl [Example A057] = 6.15
3) O=C(O)CCOc1cc(C(F)(F)F)ccc1-c1cc(=O)c2cc(F)cc(Cl)c2o1 [Example A003] = 6.15
4) O=C(O)COCCCOc1cc(Cl)ccc1-c1cc(=O)c2cccc(Cl)c2o1 [Example C009] = 6.15
5) O=c1cc(-c2ccccc2OCCO[C@H]2C[C@@H](C(=O)O)C2)oc2c(Cl)ccc(C(F)(F)F)c12 [Example C094] = 6.15
6) O=c1cc(-c2ccccc2OCCO[C@H]2C[C@H](C(=O)O)C2)oc2c(C(F)(F)F)cccc12 [Example C047-B] = 6.15
7) O=c1cc(-c2ccc(C(F)(F)F)cc2O[C@H]2C[C@@H](C(=O)O)C2)oc2c(Cl)ccc(O)c12 [Example B038-A] = 6.84
8) O=c1cc(-c2ccccc2OC[C@H]2C[C@H](C(=O)O)C2)oc2c(Cl)cccc12 [Example B026-B] = 6.15
9) Cc1ccc(S(=O)(=O)N[C@@H](COc2cc(C(F)(F)F)ccc2-c2cc(=O)c3cccc(Cl)c3o2)C(=O)O)cc1 [Example A097] = 8.78
10) COc1cc(-c2cc(=O)c3cccc(Cl)c3o2)c(OCCO[C@H]2C[C@@H](C(=O)O)C2)cc1O [Example C076] = 6.15
11) O=c1cc(-c2cc3c(cc2OCCO[C@H]2C[C@@H](C(=O)O)C2)OC(F)(F)O3)oc2c(Cl)cccc12 [Example C102] = 7.11
12) COc1cc(-c2cc(=O)c3cccc(Cl)c3o2)c(OCCOCC(=O)O)cc1Br [Example C020] = 6.15
13) CS(=O)(=O)NC(=O)[C@H]1C[C@H](Oc2cc(C(F)(F)F)ccc2-c2cc(=O)c3cccc(Cl)c3o2)C1 [Example B048-B] = 6.15
14) O=C(O)[C@H]1CCCN1C(=O)CCOc1cc(Br)ccc1-c1cc(=O)c2cccc(Cl)c2o1 [Example A075] = 6.15
15) CS(=O)(=O)NC(=O)COCCOc1cc(C(F)(F)F)ccc1-c1cc(=O)c2cccc(Cl)c2o1 [Example C120] = 6.15
16) O=C(O)C1CC(Oc2cc(OC(F)(F)F)c(Br)cc2-c2cc(=O)c3cccc(Cl)c3o2)C1 (stereo not drawn) [Example B007] = 6.15
17) Cc1cc(-c2cc(=O)c3cccc(Cl)c3o2)c(O[C@H]2C[C@@H](C(=O)NS(C)(=O)=O)C2)cc1Br [Example B049-A] = 7.5
18) COc1cc(O[C@H]2C[C@@H](C(=O)NS(C)(=O)=O)C2)c(-c2cc(=O)c3cccc(Cl)c3o2)cc1C [Example B050-A] = 6.15
19) Cc1cc(-c2cc(=O)c3cccc(Cl)c3o2)c(OCCC(=O)O)cc1C(F)(F)F [Example A044] = 6.15
20) O=c1cc(-c2cccc(F)c2OCCO[C@H]2C[C@H](C(=O)O)C2)oc2c(Cl)cccc12 [Example C037-B] = 6.15
21) COc1cc(O[C@H]2C[C@@H](C(=O)NS(=O)(=O)C3CC3)C2)c(-c2cc(=O)c3cccc(Cl)c3o2)cc1Br [Example B056-A] = 6.48
22) O=C(O)COCCCOc1cc(C(F)(F)F)ccc1-c1cc(=O)c2cccc(Cl)c2o1 [Example C001] = 6.15
23) O=c1cc(-c2ccc(Br)cc2OCCO[C@H]2C[C@@H](C(=O)O)C2)oc2c(Cl)cc(F)cc12 [Example C028] = 8.85
24) Cc1cc(-c2cc(=O)c3cccc(Br)c3o2)c(OCCCOCC(=O)O)cc1Cl [Example C018] = 6.74
25) Cc1cc(-c2cc(=O)c3cccc(Cl)c3o2)c(OCC(=O)N2CCC[C@@H]2C(=O)O)cc1Br [Example A079] = 6.6
26) O=C(O)COCCCOc1cc(OC(F)(F)F)ccc1-c1cc(=O)c2cccc(Cl)c2o1 [Example C014] = 8.04
27) O=c1cc(-c2ccccc2O[C@H]2C[C@H](C(=O)O)C2)oc2c(Cl)cccc12 [Example B002-B] = 6.15
28) O=c1cc(-c2cccc(F)c2OCCO[C@H]2C[C@@H](C(=O)O)C2)oc2c(Cl)cccc12 [Example C037-A] = 6.15
29) O=c1cc(-c2ccc(F)cc2OCCO[C@H]2C[C@@H](C(=O)O)C2)oc2c(Cl)cc(F)cc12 [Example C045-A] = 6.53
30) O=c1cc(-c2ncc(Br)cc2O[C@H]2C[C@H](C(=O)O)C2)oc2c(Cl)cccc12 [Example B029] = 6.15

----------
assay overview: Human microsome stability assay
Format: in vitro ADME
condition parameters: human liver microsomes, 1 μM test compound, 0.5 mg/mL microsomal protein, 37° C., pH 7.4, 0-30 minutes
Listed below: Clearance of Human microsome values for each entry.
value kind: Clearance of Human microsome (mL/min/kg)

1. Cc1cc(Br)c(OC2CC(C(=O)O)C2)c(-c2cc(=O)c3cccc(Cl)c3o2)c1 (stereo not drawn) [Example B009] = 6.19
2. O=c1cc(-c2ccccc2OCCO[C@H]2C[C@H](C(=O)O)C2)oc2c(Cl)cc(F)cc12 [Example C036-B] = 6.15
3. O=C(O)CCOc1cc(C(F)(F)F)ccc1-c1cc(=O)c2ccc(F)c(Cl)c2o1 [Example A031] = 6.15
4. COc1cc(-c2cc(=O)c3cccc(Cl)c3o2)c(OCCO[C@H]2C[C@@H](C(=O)O)C2)cc1OCC(F)(F)F [Example C080] = 6.15
5. COc1ccc(-c2cc(=O)c3cccc(Cl)c3o2)c(O[C@H]2C[C@@H](C(=O)O)C2)c1 [Example B011-A] = 8.35
6. O=C(COCCOc1cc(C(F)(F)F)ccc1-c1cc(=O)c2cccc(Cl)c2o1)NS(=O)(=O)C1CC1 [Example C118] = 6.15
7. Cc1ccc(OCCO[C@H]2C[C@@H](C(=O)O)C2)c(-c2cc(=O)c3cccc(Cl)c3o2)c1 [Example C050-A] = 6.15
8. COc1cc(-c2cc(=O)c3cccc(Cl)c3o2)c(O[C@H]2C[C@@H](C(=O)NS(=O)(=O)C3CC3)C2)cc1Br [Example B054] = 6.15
9. O=c1cc(-c2ccc(OC(F)(F)F)cc2O[C@H]2C[C@@H](C(=O)O)C2)oc2c(Cl)cccc12 [Example B015-A] = 6.15
10. O=c1cc(-c2ccccc2O[C@H]2C[C@@H](C(=O)O)C2)oc2c(Cl)cccc12 [Example B002-A] = 6.15
11. COc1ccc2c(=O)cc(-c3ccc(C(F)(F)F)cc3OCCC(=O)O)oc2c1Cl [Example A032] = 6.15
12. COc1cc(-c2cc(=O)c3cccc(Cl)c3o2)c(OCCC(=O)O)cc1OCC(F)(F)F [Example A041] = 6.15
13. COc1cc(OCCO[C@H]2C[C@@H](C(=O)O)C2)c(-c2cc(=O)c3cccc(Cl)c3o2)cc1OCC(F)(F)F [Example C085] = 6.15
14. CC(C)(COc1cc(Br)ccc1-c1cc(=O)c2cccc(Cl)c2o1)CO[C@H]1C[C@@H](C(=O)O)C1 [Example C110-A] = 6.15
15. Cc1ccc(-c2cc(=O)c3cccc(Cl)c3o2)c(OCCO[C@H]2C[C@H](C(=O)O)C2)c1 [Example C038-B] = 6.15
16. Cc1ccc(-c2cc(=O)c3cccc(Cl)c3o2)c(OCC(=O)N2CCC[C@@H]2C(=O)O)c1 [Example A077] = 8.57
17. CC(C)(CCCOc1cc(OC(F)(F)F)ccc1-c1cc(=O)c2cccc(Cl)c2o1)C(=O)O [Example A071] = 7.4
18. O=C(O)COCC(O)COc1cc(C(F)(F)F)ccc1-c1cc(=O)c2cccc(Cl)c2o1 (stereo not drawn) [Example C115] = 6.15
19. CC(C)c1ccc(-c2cc(=O)c3cccc(Cl)c3o2)c(O[C@H]2C[C@H](C(=O)O)C2)c1 [Example B020-B] = 8.46
20. Cc1cc(-c2cc(=O)c3cccc(Cl)c3o2)c(OCCCOCC(=O)O)cc1Cl [Example C019] = 6.71
21. O=C(O)[C@H]1CCN(C(=O)COc2cc(C(F)(F)F)ccc2-c2cc(=O)c3cccc(Cl)c3o2)C1 [Example A083] = 6.15
22. N[C@@H](COc1cc(C(F)(F)F)ccc1-c1cc(=O)c2cccc(Cl)c2o1)C(=O)O [Example A095] = 9.59
23. O=C(O)CCCOc1cc(OC(F)(F)F)ccc1-c1cc(=O)c2cccc(Cl)c2o1 [Example A053] = 7.66
24. O=C(O)C1CCC(OCCCOc2cc(C(F)(F)F)ccc2-c2cc(=O)c3cccc(Cl)c3o2)C1 (stereo not drawn) [Example C104] = 6.15
25. O=c1cc(-c2ccccc2OCCO[C@H]2C[C@H](C(=O)O)C2)oc2c(Cl)cccc12 [Example C025-B] = 6.15
26. O=C(CCOc1cc(C(F)(F)F)ccc1-c1cc(=O)c2cccc(Cl)c2o1)NS(=O)(=O)C1CC1 [Example A084] = 7.5
27. O=C(O)[C@H]1C[C@@H](Oc2cc(C(F)(F)F)ccc2-c2cc(=O)c3cccc(Cl)c3o2)CN1S(=O)(=O)c1ccccc1 [Example B088] = 6.15
28. O=c1cc(-c2cc(F)c(Br)cc2OCCO[C@H]2C[C@H](C(=O)O)C2)oc2c(Cl)cccc12 [Example C044-B] = 9.33
29. O=C(COCCCOc1cc(C(F)(F)F)ccc1-c1cc(=O)c2cccc(Cl)c2o1)NS(=O)(=O)C1CC1 [Example C117] = 7.45
30. COc1cc(O[C@H]2C[C@H](C(=O)NS(C)(=O)=O)C2)c(-c2cc(=O)c3cccc(Cl)c3o2)cc1C [Example B050-B] = 7.69
